Parameter melting point: see the listing below.

compound string	melting point
COc1ccc(Cn2c(=O)n([C@H]3CC[C@H](NC(N)=O)CC3)c3ccc(C(F)(F)F)cc32)cc1Cl	164 to 165.5 °C
COc1ccc(Cn2c(=O)n([C@H]3CC[C@H](O)CC3)c3ccc(Cl)cc32)cc1OC	166 to 167 °C
COc1ccc(Cn2c(=O)n([C@H]3CC[C@H](OC(C)=O)CC3)c3ccc([N+](=O)[O-])cc32)cc1OC	207 to 207.5 °C
COc1ccc(Cn2c(=O)n([C@H]3CC[C@H](O)CC3)c3ncc(C(=O)NCc4cccnc4)cc32)cc1Cl	134 to 135 °C
COc1ccc(Cn2c(=O)n([C@H]3CC[C@H](N)CC3)c3ccc(C(F)(F)F)cc32)cc1Cl	167 to 168.5 °C

Numbers sourced from patent US6582351B1.
